experiment: Clearance in Swiss Albino mouse at 1 mg/kg, iv by LC-MS/MS method; assay type: ADME, organism-based; conditions: in vivo, read-out: CLH
RECORDED ENDPOINT: clearance (mL/min/kg)
Return type: number; implicit unit mL/min/kg.

Notebook: `CCOc1ccc(-c2csc(Nc3ccc(Cl)cn3)n2)nc1` , clearance read as 91

###

assay: Cmax in Swiss Albino mouse at 50 mg/kg, po by LC-MS/MS method; assay type: ADME, organism-based; parameters: dose 50 mg/kg, route oral; conditions: in vivo
RECORDED ENDPOINT: Cmax (ng/mL)
Return type: number; implicit unit ng/mL.

Notebook: `Cc1ccc(Nc2nc(-c3ccccn3)cs2)cc1` , Cmax read as 108

###

test: AUClast in Swiss Albino mouse at 25 mg/kg, po by LC-MS/MS method; assay type: ADME, organism-based; parameters: dose 25 mg/kg, route oral, time 0 - last; conditions: in vivo
RECORDED ENDPOINT: AUC(0-t) (ng·h/mL)
Return type: number; implicit unit ng·h/mL.

Notebook: `CCOc1ccc(-c2csc(Nc3ccc(Cl)cn3)n2)nc1` , AUC(0-t) read as 362

###

assay: AUC (infinity) in Swiss Albino mouse at 1 mg/kg, iv by LC-MS/MS method; type: ADME, organism-based; design: dose 1 mg/kg, time infinity, route intravenous; details: in vivo
RECORDED ENDPOINT: AUC(0-inf) (ng·h/mL)
Return type: number; implicit unit ng·h/mL.

Notebook: `CCOc1ccc(-c2csc(Nc3ccc(Cl)cn3)n2)nc1` , AUC(0-inf) read as 183

###

assay: Tmax in Swiss Albino mouse at 25 mg/kg, po by LC-MS/MS method; type: ADME, organism-based; settings: in vivo
RECORDED ENDPOINT: Tmax (min)
Return type: number; implicit unit min.

Notebook: `CCOc1ccc(-c2csc(Nc3ccc(Cl)cn3)n2)nc1` , Tmax read as 15

###

test: Terminal half-life in Swiss Albino mouse at 1 mg/kg, iv by LC-MS/MS method; type: ADME, organism-based; settings: in vivo, read-out: beta t1/2 (converted)
RECORDED ENDPOINT: half-life (min)
Return type: number; implicit unit min.

Notebook: `CCOc1ccc(-c2csc(Nc3ccc(Cl)cn3)n2)nc1` , half-life read as 28.8

###

experiment: Metabolic stability in golden Syrian hamster liver microsomes assessed as drug metabolism at 0.5 uM incubated for 30 mins in presence of NADPH; assay type: ADME, Mesocricetus auratus; details: read-out: Drug metabolism
RECORDED ENDPOINT: metabolised at 0.5 h, 0.5 µM

cpd_smiles=Cc1ccc(Nc2nc(-c3ccccn3)cs2)cc1C result=100%

Notebook: `COc1ccc(Nc2nc(-c3ccncc3)cs2)cc1` , metabolised at 0.5 h, 0.5 µM read as 98%

Notebook: `Cc1ccc(Nc2nc(-c3ccccn3)cs2)nc1` , metabolised at 0.5 h, 0.5 µM read as 100%

Notebook: `Clc1ccc(Nc2nc(-c3cnccn3)c(Cl)s2)nc1` , metabolised at 0.5 h, 0.5 µM read as 78%

Notebook: `Clc1ccc(Nc2nc(-c3cccnn3)c(Cl)s2)nc1` , metabolised at 0.5 h, 0.5 µM read as 99%

Notebook: `CCOc1ccc(-c2nc(Nc3ccc(Cl)cn3)sc2Cl)nc1` , metabolised at 0.5 h, 0.5 µM read as 87%

Notebook: `COc1ccc(Nc2nc(-c3ccccn3)cs2)cc1` , metabolised at 0.5 h, 0.5 µM read as 100%

Notebook: `COc1ccnc(-c2csc(Nc3ccc(Cl)cn3)n2)c1` , metabolised at 0.5 h, 0.5 µM read as 100%

Notebook: `Clc1ccc(Nc2nc(-c3cnccn3)cs2)nc1` , metabolised at 0.5 h, 0.5 µM read as 99%

Notebook: `CCOc1ccc(-c2csc(Nc3ccc(Cl)cn3)n2)nc1` , metabolised at 0.5 h, 0.5 µM read as 10%

###

experiment: Metabolic stability in CD1 mouse liver microsomes assessed as drug metabolism at 0.5 uM incubated for 30 mins in presence of NADPH; format: ADME; details: read-out: Drug metabolism
Quick rule for you: metabolised at 0.5 h, 0.5 µM at 90% or higher means Satisfied, lower means Not satisfied.

# count of solved cases: 5
cpd_smiles=Clc1ccc(Nc2nc(-n3cccn3)cs2)nc1 discrete_label=Satisfied
cpd_smiles=COc1ccc(-c2csc(Nc3ccc(Cl)cn3)n2)nc1 discrete_label=Satisfied
cpd_smiles=COc1ccc(Nc2nc(-c3ccccn3)cs2)cc1 discrete_label=Satisfied
cpd_smiles=COc1ccnc(-c2csc(Nc3ccc(Cl)cn3)n2)c1 discrete_label=Satisfied
cpd_smiles=FC(F)(F)c1ccc(-c2nc(Nc3ccc(Cl)cn3)sc2Cl)nc1 discrete_label="Not satisfied"

Please find the next compound below.
Query :: Confirm if metabolised at 0.5 h, 0.5 µM reported for the compound `CN(C)c1ccc(Nc2nc(-c3ccccn3)cs2)cc1` is 90% or above.
Result :: Satisfied

###

test: Tmax in Swiss Albino mouse at 50 mg/kg, po by LC-MS/MS method; assay type: ADME, organism-based; settings: in vivo
RECORDED ENDPOINT: Tmax (min)
Return type: number; implicit unit min.

Notebook: `Cc1ccc(Nc2nc(-c3ccccn3)cs2)cc1` , Tmax read as 15

###

test: AUC (infinity) in Swiss Albino mouse at 25 mg/kg, po by LC-MS/MS method; type: ADME, organism-based; parameters: dose 25 mg/kg, time infinity, route oral; conditions: in vivo
RECORDED ENDPOINT: AUC(0-inf) (ng·h/mL)
Return type: number; implicit unit ng·h/mL.

Notebook: `CCOc1ccc(-c2csc(Nc3ccc(Cl)cn3)n2)nc1` , AUC(0-inf) read as 377

###

experiment: AUClast in Swiss Albino mouse at 1 mg/kg, iv by LC-MS/MS method; type: ADME, organism-based; parameters: dose 1 mg/kg, route intravenous, time 0 - last; conditions: in vivo
RECORDED ENDPOINT: AUC(0-t)
Returns: string containing the number followed by the unit.

Notebook: `CCOc1ccc(-c2csc(Nc3ccc(Cl)cn3)n2)nc1` , AUC(0-t) read as 178 ng·h/mL

###

assay: Volume of distribution at steady state in Swiss Albino mouse at 1 mg/kg, iv by LC-MS/MS method; format: ADME, organism-based; conditions: in vivo, read-out: Vdss
RECORDED ENDPOINT: Vd
Returns: string containing the number followed by the unit.

Notebook: `CCOc1ccc(-c2csc(Nc3ccc(Cl)cn3)n2)nc1` , Vd read as 1.99 L/kg

###

assay: Metabolic stability in golden Syrian hamster liver microsomes assessed as drug metabolism at 0.5 uM incubated for 30 mins in presence of NADPH; format: ADME, Mesocricetus auratus; conditions: read-out: Drug metabolism
RECORDED ENDPOINT: metabolised at 0.5 h, 0.5 µM (%)
Return type: number; implicit unit %.

Please review the following examples before continuing.
cpd_smiles=Cc1cccc(Nc2nc(-c3ccccn3)cs2)n1 recorded_number=100
cpd_smiles=Cc1ccnc(Nc2nc(-c3ccccn3)cs2)c1 recorded_number=99
cpd_smiles=Clc1ccc(Nc2nc(-c3ncccn3)c(Cl)s2)nc1 recorded_number=99

Notebook: `COc1ccc(Nc2nc(-c3ccccn3)cs2)nc1` , metabolised at 0.5 h, 0.5 µM read as 99

Notebook: `c1ccc(Nc2nc(-c3ccccn3)cs2)nc1` , metabolised at 0.5 h, 0.5 µM read as 100

Notebook: `COc1ccnc(-c2nc(Nc3ccc(Cl)cn3)sc2Cl)c1` , metabolised at 0.5 h, 0.5 µM read as 100

Notebook: `c1ccc(-c2csc(Nc3ccc4c(c3)OCCO4)n2)nc1` , metabolised at 0.5 h, 0.5 µM read as 100

###

assay: Cmax in Swiss Albino mouse at 1 mg/kg, iv by LC-MS/MS method; type: ADME, organism-based; set-up: dose 1 mg/kg, route intravenous; conditions: in vivo
RECORDED ENDPOINT: Cmax (ng/mL)
Return type: number; implicit unit ng/mL.

Notebook: `CCOc1ccc(-c2csc(Nc3ccc(Cl)cn3)n2)nc1` , Cmax read as 885

###

Below, each entry is listed alongside its reported metabolised at 0.5 h, 0.5 µM.
experiment: Metabolic stability in golden Syrian hamster liver microsomes assessed as drug metabolism at 0.5 uM incubated for 30 mins in presence of NADPH; format: ADME, Mesocricetus auratus; conditions: read-out: Drug metabolism
Return type: number; implicit unit %.

Please review the following examples before continuing.
cpd_smiles=COc1ccc(Nc2nc(-c3ccccn3)cs2)cc1OC recorded_number=100
cpd_smiles=Clc1ccc(Nc2nc(-c3ncccn3)cs2)nc1 recorded_number=100
cpd_smiles=COc1ccc(Nc2nc(-c3ncccn3)cs2)cc1 recorded_number=81
cpd_smiles=FC(F)(F)c1ccc(-c2nc(Nc3ccc(Cl)cn3)sc2Cl)nc1 recorded_number=63
cpd_smiles=Clc1ccc(Nc2nc(-c3ccccn3)c(Cl)s2)nc1 recorded_number=100
cpd_smiles=Clc1ccc(Nc2nc(-c3ccccn3)cs2)nc1 recorded_number=100
cpd_smiles=Cc1cccnc1Nc1nc(-c2ccccn2)cs1 recorded_number=100
cpd_smiles=COc1cccc(-c2csc(Nc3ccc(Cl)cn3)n2)n1 recorded_number=100

Notebook: `Clc1ccc(Nc2nc(-c3cccnn3)cs2)nc1` , metabolised at 0.5 h, 0.5 µM read as 99

Notebook: `COc1ccc(-c2csc(Nc3ccc(Cl)cn3)n2)nc1` , metabolised at 0.5 h, 0.5 µM read as 100

Notebook: `COc1ccc(-c2nc(Nc3ccc(Cl)cn3)sc2Cl)nc1` , metabolised at 0.5 h, 0.5 µM read as 100

Notebook: `Clc1ccc(Nc2nc(-n3cccn3)cs2)nc1` , metabolised at 0.5 h, 0.5 µM read as 100

Notebook: `COc1ccc(Nc2nc(-c3cccnc3)cs2)cc1` , metabolised at 0.5 h, 0.5 µM read as 96

Notebook: `CN(C)c1ccc(Nc2nc(-c3ccccn3)cs2)cc1` , metabolised at 0.5 h, 0.5 µM read as 99

Notebook: `FC(F)(F)c1ccc(-c2csc(Nc3ccc(Cl)cn3)n2)nc1` , metabolised at 0.5 h, 0.5 µM read as 98

Notebook: `Cc1ccc(Nc2nc(-c3ccccn3)cs2)cc1` , metabolised at 0.5 h, 0.5 µM read as 100
